Source of measurements: patent US11046675B2

- measured on: PD-1/PD-L1 (Homo sapiens (Human), UniProt Q9NZQ7)
- Sequence (Q9NZQ7 other isoform, or with tags, fused parts or gaps): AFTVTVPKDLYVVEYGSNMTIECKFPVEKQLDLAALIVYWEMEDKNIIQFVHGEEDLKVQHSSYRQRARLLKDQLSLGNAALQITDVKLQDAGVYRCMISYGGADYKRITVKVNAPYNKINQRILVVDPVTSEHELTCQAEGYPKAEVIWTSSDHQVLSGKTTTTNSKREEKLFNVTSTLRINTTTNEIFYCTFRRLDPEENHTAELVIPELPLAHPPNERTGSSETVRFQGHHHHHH
- assay explanation: PD-1/PD-L1 Homogenous Time-Resolved Fluorescence (HTRF) binding assay
- measurement parameters: PD-L1-His 10 nM, PD-1-Ig 20 nM; reported as value; read-out: IC50 (μM) (Range or value)
reported metric: IC50

COC(=O)CN1CCc2c(Cl)c(OCc3cccc(-c4cccc(OCCCN5CC[C@@H](O)C5)c4C)c3C)cc(OCc3cncc(C(=O)OC)c3)c2C1 : > 10 µM

Form entry - test system: PD-1/PD-L1 (Homo sapiens (Human), UniProt Q9NZQ7); read-out: IC50; compound: Cc1c(COc2ccc3c(c2)CN[C@H](C(=O)O)C3)cccc1-c1ccc2c(c1)OCCO2
> 10 µM

Would you kindly repeat that for Cc1c(COc2cc(OCc3cncc(C#N)c3)c3c(c2Cl)CCN(CC(=O)O)C3)cccc1-c1cccc(OCCCN2CC[C@@H](O)C2)c1C ?
0.002 µM
